target: human orexin 1 receptor (Homo sapiens); test: Calcium accumulation in cells (FLIPR), antagonism of orexin A, human orexin 1 receptor; details: calcium accumulation, antagonism of orexin A, Cheng-Prusoff corrected; read-out: FLIPR hOx1R Ki
Sequence (O43613 whole entry): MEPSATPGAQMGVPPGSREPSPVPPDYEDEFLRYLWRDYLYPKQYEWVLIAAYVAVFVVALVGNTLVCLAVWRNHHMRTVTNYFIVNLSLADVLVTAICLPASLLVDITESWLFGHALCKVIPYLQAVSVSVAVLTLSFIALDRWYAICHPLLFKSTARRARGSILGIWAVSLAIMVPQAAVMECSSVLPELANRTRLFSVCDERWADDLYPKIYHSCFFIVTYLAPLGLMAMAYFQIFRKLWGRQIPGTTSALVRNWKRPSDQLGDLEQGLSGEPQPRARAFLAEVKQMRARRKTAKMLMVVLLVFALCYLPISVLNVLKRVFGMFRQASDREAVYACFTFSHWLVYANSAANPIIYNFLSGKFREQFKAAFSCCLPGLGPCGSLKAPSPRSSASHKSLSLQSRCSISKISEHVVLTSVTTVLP
Would you mind telling me the reported Ki of each entry?
Numeric answer only, unit nM assumed.

Enquiry: Could you share which Ki value was measured for COc1cc(C)nc(N2CCC3(CCN(Cc4ccccc4-c4nc(C)no4)C3=O)CC2)n1 ?
Return: 1640

Enquiry: Could you share which Ki value was measured for Cc1ccc(C)c(CN2C(=O)OCC23CCN(c2cnc4ccccc4n2)CC3)c1 ?
Return: 141

Enquiry: Could you share which Ki value was measured for COc1cccc(-c2n[nH]nc2CN2CCOC3(CCN(c4nc(C)cc(C)n4)CC3)C2=O)c1 ?
Return: 220

Enquiry: Could you share which Ki value was measured for COCc1cccc(-c2oc(C)nc2CN2CCNC3(CCN(c4nc(C)cc(OC)n4)CC3)C2=O)c1 ?
Return: 2840

Enquiry: Could you share which Ki value was measured for COc1cccc(-c2ocnc2CN2CCNC3(CCN(c4nc(C)cc(C#N)n4)CC3)C2=O)c1 ?
Return: 2660
